target: CYP1A1 (Mus musculus, UniProt P00184); experiment: Inhibition of CYP1A1 in mouse RAW264.7 cells assessed as relative activity by measuring fold change at 5 uM incubated for 12 hrs by EROD assay relative to control; format: cell-based; settings: read-out: FC
Sequence (P00184 whole entry): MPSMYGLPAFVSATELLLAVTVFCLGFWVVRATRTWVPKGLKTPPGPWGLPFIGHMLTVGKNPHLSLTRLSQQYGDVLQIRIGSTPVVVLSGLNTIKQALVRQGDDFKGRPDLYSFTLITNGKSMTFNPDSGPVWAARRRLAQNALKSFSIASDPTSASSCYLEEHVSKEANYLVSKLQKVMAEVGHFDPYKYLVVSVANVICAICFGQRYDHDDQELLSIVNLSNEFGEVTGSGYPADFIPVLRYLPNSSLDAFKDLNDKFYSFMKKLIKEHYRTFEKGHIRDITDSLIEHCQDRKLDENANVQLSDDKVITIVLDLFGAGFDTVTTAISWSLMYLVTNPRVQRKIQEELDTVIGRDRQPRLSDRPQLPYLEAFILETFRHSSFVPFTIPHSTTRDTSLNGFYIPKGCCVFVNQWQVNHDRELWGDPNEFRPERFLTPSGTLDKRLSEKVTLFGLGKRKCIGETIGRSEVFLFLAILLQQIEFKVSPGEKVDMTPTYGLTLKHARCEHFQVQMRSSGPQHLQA
Measured Parameter: fold induction at 12 h, 5 µM

(a) Cn1c(=O)n(C)c2cc(C(=O)/C=C/c3c4ccccc4cc4ccccc34)ccc21
(b) Cn1c(=O)n(C)c2cc(C(=O)/C=C/c3cc4ccccc4o3)ccc21
stdin: Hi team, can someone confirm which has the larger fold induction at 12 h, 5 µM: a or b ? Thanks. Please indicate the selected item by its label.
stdout: a

(A) C#Cc1ccc(/C=C/C(=O)c2ccc(NC(C)=O)cc2)cc1
(B) Cn1c(=O)n(C)c2cc(C(=O)/C=C/c3cc(F)cc(F)c3)ccc21
stdin: Hi team, can someone confirm which has the larger fold induction at 12 h, 5 µM: A or B ? Thanks. Please indicate the selected item by its label.
stdout: B

====

molecular target: CYP1A1 (Mus musculus, UniProt P00184); assay: Inhibition of CYP1A1 in mouse RAW264.7 cells assessed as relative activity by measuring fold change at 500 nM incubated for 12 hrs by EROD assay relative to control; assay type: cell-based; details: read-out: FC
Measured Parameter: fold induction at 12 h, 0.5 µM

>  <Smiles Repr>
Cn1c(=O)n(C)c2cc(C(=O)/C=C/c3c(F)c(F)c(F)c(F)c3F)ccc21

>  <Measured Parameter>
fold induction at 12 h, 0.5 µM

>  <Reported Value>
0.69

$$$$
>  <Smiles Repr>
Cn1c(=O)n(C)c2cc(C(=O)/C=C/c3ccc(I)o3)ccc21

>  <Measured Parameter>
fold induction at 12 h, 0.5 µM

>  <Reported Value>
0.75

$$$$

(1) Cc1ccc(/C=C/C(=O)c2ccc3c(c2)n(C)c(=O)n3C)cn1
(2) O=C(/C=C/c1ccc(F)cc1)c1ccccc1
stdin: Hi team, can someone confirm which has the larger fold induction at 12 h, 0.5 µM: 1 or 2 ? Thanks. Please indicate the selected item by its label.
stdout: 2

====

molecular target: CYP1A1 (Mus musculus, UniProt P00184); assay: Inhibition of CYP1A1 in mouse RAW264.7 cells assessed as relative activity by measuring fold change at 500 nM incubated for 12 hrs by EROD assay relative to control; assay type: cell-based; settings: read-out: FC
Measured Parameter: fold induction at 12 h, 0.5 µM

>  <Smiles Repr>
Cn1c(=O)n(C)c2cc(C(=O)/C=C/c3cc4ccccc4s3)ccc21

>  <Assayed Target>
CYP1A1 (Mus musculus, UniProt P00184)

>  <Reported Value>
1.12

$$$$
>  <Smiles Repr>
CN(C)c1ccc(/C=C/C(=O)c2ccc3c(c2)n(C)c(=O)n3C)cc1

>  <Assayed Target>
CYP1A1 (Mus musculus, UniProt P00184)

>  <Reported Value>
1.05

$$$$
>  <Smiles Repr>
Cn1c(=O)n(C)c2cc(C(=O)/C=C/c3ccc4ccccc4c3)ccc21

>  <Assayed Target>
CYP1A1 (Mus musculus, UniProt P00184)

>  <Reported Value>
0.8

$$$$
>  <Smiles Repr>
C#Cc1ccc(/C=C/C(=O)c2ccc3c(c2)n(C)c(=O)n3C)cc1

>  <Assayed Target>
CYP1A1 (Mus musculus, UniProt P00184)

>  <Reported Value>
0.63

$$$$
>  <Smiles Repr>
Cn1c(=O)n(C)c2cc(C(=O)/C=C/c3cc(F)cc(F)c3)ccc21

>  <Assayed Target>
CYP1A1 (Mus musculus, UniProt P00184)

>  <Reported Value>
0.76

$$$$
>  <Smiles Repr>
Cn1c(=O)n(C)c2cc(C(=O)/C=C/c3cccs3)ccc21

>  <Assayed Target>
CYP1A1 (Mus musculus, UniProt P00184)

>  <Reported Value>
0.38

$$$$
>  <Smiles Repr>
Cn1c(=O)n(C)c2cc(C(=O)/C=C/c3ccc(C#N)cc3)ccc21

>  <Assayed Target>
CYP1A1 (Mus musculus, UniProt P00184)

>  <Reported Value>
0.82

$$$$
>  <Smiles Repr>
Cn1c(=O)n(C)c2cc(C(=O)/C=C/C3CC3)ccc21

>  <Assayed Target>
CYP1A1 (Mus musculus, UniProt P00184)

>  <Reported Value>
0.8

$$$$

(1) Cn1c(=O)n(C)c2cc(C(=O)/C=C/c3cccnc3Br)ccc21
(2) Cn1c(=O)n(C)c2cc(C(=O)/C=C/c3cccc(F)c3)ccc21
stdin: Hi team, can someone confirm which has the larger fold induction at 12 h, 0.5 µM: 1 or 2 ? Thanks. Please indicate the selected item by its label.
stdout: 2
(2: 1.42, 1: 0.94)
